System: Staphylococcus aureus
Test: Inhibition of type II fatty acid synthesis in Staphylococcus aureus using n-octanoyl-CoA and [14C]malonyl CoA substrate
PROPERTY MEASURED: IC50

IC50 recorded for this compound, COc1cc(C)c2c(c1)O[C@@]1(C)Cc3cc4c(c(O)c3[C@@H]2O1)C(=O)c1c(O)c(Cl)c(O)c(Cl)c1C4(C)C , is 11.4 µg/mL

compound CO[C@H]1/C=C/O[C@@]2(C)Oc3c(C)c(O)c4c(O)c(c(/C=N/N5CCN(C)CC5)c(O)c4c3C2=O)NC(=O)/C(C)=C\C=C\[C@H](C)[C@H](O)[C@@H](C)[C@@H](O)[C@@H](C)[C@H](OC(C)=O)[C@@H]1C , IC50 observed: > 250 µg/mL

The measured IC50 associated with Cc1cc(O)cc2c1[C@@H]1O[C@@](C)(Cc3cc4c(c(O)c31)C(=O)c1c(O)cc(O)cc1C4(C)C)O2 reads 245 µg/mL

IC50 recorded for this compound, Cc1cc(O)cc2c1[C@H]1O[C@](C)(Cc3cc4c(c(O)c31)C(=O)c1c(O)cc(O)cc1C4(C)C)O2 , is 288 µg/mL

# IC50 of O=C(N[C@H](CO)[C@H](O)c1ccc([N+](=O)[O-])cc1)C(Cl)Cl = > 250 µg/mL
